experiment: self-splicing fitness, log relative to wild type (ln ratio); higher = more splicing; Tetrahymena group I intron in knt gene, E. coli kanamycin selection, DiMSum; sequences stand for … in CUCUCU…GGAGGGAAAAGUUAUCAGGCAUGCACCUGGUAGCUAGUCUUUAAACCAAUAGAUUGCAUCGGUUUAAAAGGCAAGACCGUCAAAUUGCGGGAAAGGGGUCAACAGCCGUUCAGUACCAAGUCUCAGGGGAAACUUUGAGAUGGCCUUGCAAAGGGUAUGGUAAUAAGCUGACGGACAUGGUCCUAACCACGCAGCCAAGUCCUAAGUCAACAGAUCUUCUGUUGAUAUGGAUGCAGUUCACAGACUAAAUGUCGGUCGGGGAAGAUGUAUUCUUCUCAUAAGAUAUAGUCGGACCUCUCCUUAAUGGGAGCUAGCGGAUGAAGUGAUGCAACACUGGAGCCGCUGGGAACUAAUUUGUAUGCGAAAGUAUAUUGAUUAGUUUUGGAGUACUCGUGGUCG; details: 37 °C;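 further: selection with 25 µg/mL kanamycin versus none on LB agar overnight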
Listed next: entries and their corresponding self-splicing fitness (ln).
readoutType: self-splicing fitness (ln)

constructSequence: AUAUAGCAAUAUUACGCCCU
recordedMeasurement: 0.32

constructSequence: CCAUAGCAAUAUUACGCUGG
recordedMeasurement: -2.58

constructSequence: AGGCAGCAAUAUUACGCCAG
recordedMeasurement: -0.82

constructSequence: GCAGAGCAAUAUUACGCUAC
recordedMeasurement: -1.68

constructSequence: CUAGAGCAAUAUUACGUGAA
recordedMeasurement: -2.07

constructSequence: UUAUAGCAAUAUUACGCAGA
recordedMeasurement: -1.25

constructSequence: ACCCAGCAAUAUUACGCGUU
recordedMeasurement: 0.328

constructSequence: AUUAAGCAAUAUUACGAAAA
recordedMeasurement: -1.5

----------
test: self-splicing fitness, log relative to wild type (ln ratio); higher = more splicing; Tetrahymena group I intron in knt gene, E. coli kanamycin selection, DiMSum; sequences stand for … in CUCUCU…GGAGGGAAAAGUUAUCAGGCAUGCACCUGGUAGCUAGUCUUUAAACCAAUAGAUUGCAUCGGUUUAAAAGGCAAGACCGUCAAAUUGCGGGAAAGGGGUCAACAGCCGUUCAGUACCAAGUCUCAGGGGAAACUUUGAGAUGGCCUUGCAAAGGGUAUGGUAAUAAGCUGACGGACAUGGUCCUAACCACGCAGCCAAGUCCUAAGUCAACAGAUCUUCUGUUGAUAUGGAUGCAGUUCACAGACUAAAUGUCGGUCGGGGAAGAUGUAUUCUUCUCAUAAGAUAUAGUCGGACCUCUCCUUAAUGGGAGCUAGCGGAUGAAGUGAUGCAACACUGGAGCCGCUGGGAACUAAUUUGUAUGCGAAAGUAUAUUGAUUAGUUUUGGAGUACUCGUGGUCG; details: 30 °C
// bucketize self-splicing fitness (ln): low (below -3), intermediate (-3 to below -1), high (-1 or more)

constructSequence: ACAGAGCAAUAUUACGAACU
qualitativeLabel: low
//
constructSequence: CACCAGCAAUAUUACGUCAU
qualitativeLabel: low
//
constructSequence: CCUAAGCAAUAUUACGCUUG
qualitativeLabel: low
//
constructSequence: AGAGAGCAAUAUUACGGCUG
qualitativeLabel: high
//
constructSequence: UGUGAGCAAUAUUACGCCUU
qualitativeLabel: intermediate
//
constructSequence: GUAGAGCAAUAUUACGAAUC
qualitativeLabel: intermediate
//
constructSequence: AGGCAGCAAUAUUACGUCAU
qualitativeLabel: intermediate
//
constructSequence: CCACAGCAAUAUUACGAUAU
qualitativeLabel: low
//
constructSequence: AUACAGCAAUAUUACGGCGA
qualitativeLabel: intermediate
//
constructSequence: AAAAAGCAAUAUUACGUGUC
qualitativeLabel: low
//
constructSequence: AUCCAGCAAUAUUACGACUA
qualitativeLabel: high
//
constructSequence: CCGAAGCAAUAUUACGUAUG
qualitativeLabel: high
//
constructSequence: UCCAAGCAAUAUUACGGUUA
qualitativeLabel: high
//
constructSequence: AGGCAGCAAUAUUACGUACU
qualitativeLabel: high
//
constructSequence: AAUGAGCAAUAUUACGAAGG
qualitativeLabel: intermediate
//
constructSequence: UGUUAGCAAUAUUACGCGCG
qualitativeLabel: intermediate

This collection of values is drawn from the supplement of paper PMC7877785.
